- Tested on: SK-OV-3
- procedure summary: NCI tumour cell line growth inhibition, 48 h
Active and inactive are the calls of the source. Rule as the data show it: active = GI50 up to about 1.1 µM and inactive = higher.
# GI50 per record follows

> print(dat)
                                   molecule      value.reported
1  [O-][S+]1C(=c2ccc(=C3Sc4ccccc4S3)cc2)Sc2ccccc21 (configuration not stated)  21.8 µM (inactive)

Return GI50 for the following molecule: COc1cc(/C=C2/SC(c3ccccc3)N(c3cccc([N+](=O)[O-])c3)C2=O)cc(OC)c1OC (configuration not stated)
> 100 µM (inactive)

Return GI50 for the following molecule: CC(C)(C)NC1=NC(C(F)(F)F)(C(F)(F)F)NC(=O)N1
> 100 µM (inactive)

====

# GI50 per record follows
- Tested on: SN12C
- procedure summary: NCI tumour cell line growth inhibition, 48 h
The source made the active and inactive calls. Rule as the data show it: active = GI50 up to about 1.1 µM and inactive = higher.

compound	measurement target	value reported
COc1ccc(/C(=N/O)c2ccccc2-c2nc3ccccc3c(=O)n2-c2ccc(S(=O)(=O)Nc3ncccn3)cc2)cc1C	SN12C	> 30.2 µM (inactive)
N#CC(NNC(=O)c1c(Cl)c(Cl)c(Cl)c(Cl)c1-c1nc2cc(C(=O)c3ccccc3)ccc2[nH]1)c1ccccc1 (stereo not drawn)	SN12C	6.61 µM (inactive)
c1c[nH]c(-c2ccc(-c3ccc[nH]3)c3nsnc23)c1	SN12C	> 54.5 µM (inactive)

Return GI50 for the following compound: Nc1nc2c(ncn2CCOC(c2ccccc2)P(=O)(O)O)c(=O)[nH]1 (stereo not drawn)
> 100 µM (inactive)

Return GI50 for the following compound: CC(NC(=O)/C(=C/c1ccccc1O)NC(=O)c1ccccc1)C(=O)O (stereo not drawn)
21.6 µM (inactive)

Return GI50 for the following compound: CC1=C(/C=C/C(C)=C/C=C/C(C)=C/CO)C(C)(C)CCC1
21.7 µM (inactive)

Return GI50 for the following compound: C[C@@H]1CC[C@H]2[C@H](C)C(OC3O[C@@H]4O[C@@]5(C)CC[C@H]6[C@H](C)CC[C@@H]([C@@H]3C)[C@@]46O5)O[C@@H]3O[C@@]4(C)CC[C@@H]1[C@]32O4 (stereo partly drawn)
> 100 µM (inactive)

Return GI50 for the following compound: Cc1nc(-n2nc(-c3ccccc3)cc2-c2ccccc2)sc1C(=O)CC(=O)C(=O)Nc1ccc(Cl)c(Cl)c1
91.6 µM (inactive)

====

# GI50 per record follows
- System: BT-549
- procedure summary: NCI tumour cell line growth inhibition, 48 h
The source made the active and inactive calls. No stated cut-off is given here; in the data, active = GI50 up to about 1.1 µM and inactive = higher.

# example entries with known answers
molecule	value reported
O=C(c1cccc(C(=O)c2ccc3c4c(cccc24)C(=O)N(c2ccccc2)C3=O)c1)c1ccc2c3c(cccc13)C(=O)N(c1ccccc1)C2=O	> 100 µM (inactive)
Cc1cc(C)c2c(=N)c3ccccc3n(CCCCCCn3c4ccccc4c(=N)c4c(C)cc(C)nc43)c2n1	1.56 µM (inactive)

Return GI50 for the following molecule: Cc1cc(NS(=O)(=O)c2ccc(NC(=O)c3ccc4[nH]c5ccccc5c(=O)c4c3)cc2)no1
> 100 µM (inactive)

Return GI50 for the following molecule: CC(NC(=O)/C(=C/c1ccccc1O)NC(=O)c1ccccc1)C(=O)O (centres undefined)
18.9 µM (inactive)

Return GI50 for the following molecule: C=C(Cl)/C(=C/Cl)CCC(Br)C(C)(C)Cl.C=C(Cl)/C(=C\Cl)CCC(Br)C(C)(C)Cl (centres undefined)
> 10 µM (inactive)

Return GI50 for the following molecule: CO[C@]12C[C@H](CNC(=O)c3cc(Br)c(Br)[nH]3)O[C@H]1NC(=O)N2
> 100 µM (inactive)

Return GI50 for the following molecule: Cc1ccc(S(=O)(=O)NC(=O)NCC(=O)O)cc1
> 100 µM (inactive)
